tested on: MV4-11 cells; experiment: Inhibition of MV4-11 cell proliferation (CellTiterGlo, 72 hours); format: cell-based; details: Homo sapiens; 72 hours growth; uncertainty ±20%
READOUT_NAME: IC50 (nM)
Use nM as the unit, but write only the number.

Some compounds with recorded IC50:
>>> print(df.to_string())
                                   compound  readout_name  assay_value
0  CCNC(=O)NCCO/N=C/c1c(N)ncnc1N1CCC(NC(=O)Nc2ccc(C(C)C)cc2)C1 (stereo not shown)          IC50          498
1  CC(C)Oc1ccc(NC(=O)OC2CCN(c3ncnc(N)c3/C=N/OCCN3CCOCC3)CC2)cc1          IC50         2800
2  CO/N=C/c1c(N)ncnc1N1CCC(OC(=O)Nc2ccc(C(C)C)cc2)CC1          IC50           11

Let us move to another entry and its IC50.
Give the reported value of IC50 for this record: `CC(C)Oc1ccc(NC(=O)OC2CCN(c3ncnc(N)c3/C=N/OCCCN(C)C)CC2)cc1`
1400
